Tested on: MCF7
Method: Antiproliferative activity against human MCF7 cells assessed as reduction in cell growth measured after 6 days by WST8 assay
Type: functional
Test Conditions: Homo sapiens, MCF7, 144 h; time 6 day
Observation Type: log10 GI50 (log10 of the value in nM)
Recall that a logarithmic scale is used here: each number is log10 of GI50 in nM.

Some entries whose results are on file:
CC(C)(F)CN1CCc2cc(O)ccc2C1c1ccc(C(=O)NO)cc1 (stereo unspecified) = 2.36
CC(C)(F)CN1CCc2cc(O)ccc2C1c1ccc(OCCCOc2ccc(C(=O)NO)cc2)cc1 (stereo unspecified) = 2.66
CC(C)(F)CN1CCc2cc(O)ccc2C1c1ccc(OCCCCCC(=O)NO)cc1 (stereo unspecified) = 2.98
CC(C)(F)CN1CCc2cc(O)ccc2C1c1ccc(OCCCCCCC(=O)NO)cc1 (stereo unspecified) = 2.23
C[C@]12CC[C@@H]3c4ccc(O)cc4C[C@@H](CCCCCCCCC[S+]([O-])CCCC(F)(F)C(F)(F)F)[C@H]3[C@@H]1CC[C@@H]2O (stereo partly specified) [FULVESTRANT] = 2.73

Attention now turns to another entry.
Q: Request the reported log10 GI50 associated with CC(C)(F)CN1CCc2cc(O)ccc2C1c1ccc(OC2CN(CC(=O)NO)C2)cc1 (stereo unspecified)
A: 3.26
